- measurement-context: rat, microsomes, pH 7.4
Form field: microsomal stability Clin (one value per entry).

As a guide, the following entries are already answered.
>  <compound>
CSc1ncc(Cl)c(C(=O)Nc2sc3c(c2C(=O)NCc2ccccc2)CCCC3)n1

>  <microsomal stability Clin>
127/126/267/115 μL/min/mg

$$$$
>  <compound>
CC1CCN(CC(=O)Nc2sc3c(c2C(=O)NCc2ccccc2)CCCC3)CC1

>  <microsomal stability Clin>
2345/510/942/260 μL/min/mg

$$$$
>  <compound>
C[C@@H]1CCN(C(=O)c2c(NC(=O)c3cccnc3)sc3c2CCCC3)[C@H](C)C1

>  <microsomal stability Clin>
414/404/507/369 μL/min/mg

$$$$
>  <compound>
CCC1CCc2c(sc(NC(=O)c3ccnn3C)c2C(=O)Nc2ccccc2C)C1 (stereo not shown)

>  <microsomal stability Clin>
11/22/29/24 μL/min/mg

$$$$
>  <compound>
CC1CCc2c(sc(NC(=O)c3ccccc3F)c2C(=O)N2CCN(C)CC2)C1 (stereo not shown)

>  <microsomal stability Clin>
546/91/116/60 μL/min/mg

$$$$
>  <compound>
CN1CCN(CC(=O)Nc2sc3c(c2C(=O)NCc2ccccc2)CCCC3)CC1

>  <microsomal stability Clin>
319/214/115/132 μL/min/mg

$$$$

Req: For the compound CC1CCCN1C(=O)c1c(NC(=O)c2cccnc2)sc2c1CCCC2 (stereo not shown) , what microsomal stability Clin is on record?
Resp: 71/67/97/53 μL/min/mg

Req: Let us now turn to O=C(Nc1sc2c(c1C(=O)N1CCC(CO)C1)CCCC2)c1cccnc1 (stereo not shown)
Resp: 46/23/7/11 μL/min/mg

Req: Let us now turn to CSc1ncc(Cl)c(C(=O)Nc2sc3c(c2C(=O)NC2CCS(=O)(=O)C2)CCC(C)C3)n1 (stereo not shown)
Resp: 322/36/118/41 μL/min/mg

Req: Let us now turn to Cn1ccnc1SCC(=O)Nc1sc2c(c1C(=O)NCc1ccccc1)CCCC2
Resp: 2142/954/887/332 μL/min/mg

====

- measurement-context: microsomes
quantity-kind: intrinsic clearance (Clin) grade in words

>  <compound>
CN1CCN(CC(=O)Nc2sc3c(c2C(=O)NCc2ccccc2)CCCC3)CC1

>  <result>
moderate

$$$$
>  <compound>
CSc1ncc(Cl)c(C(=O)Nc2sc3c(c2C(=O)NC2CCS(=O)(=O)C2)CCC(C)C3)n1 (stereo not shown)

>  <result>
moderate

$$$$
>  <compound>
CC1CCc2c(sc(NC(=O)c3ccccc3F)c2C(=O)N2CCN(C)CC2)C1 (stereo not shown)

>  <result>
moderate

$$$$
>  <compound>
Cn1ccnc1SCC(=O)Nc1sc2c(c1C(=O)NCc1ccccc1)CCCC2

>  <result>
high

$$$$
>  <compound>
CC1CCN(CC(=O)Nc2sc3c(c2C(=O)NCc2ccccc2)CCCC3)CC1

>  <result>
high

$$$$

Req: For the compound C[C@@H]1CCN(C(=O)c2c(NC(=O)c3cccnc3)sc3c2CCCC3)[C@H](C)C1 , what intrinsic clearance (Clin) grade in words is on record?
Resp: moderate

Req: Let us now turn to CSc1ncc(Cl)c(C(=O)Nc2sc3c(c2C(=O)NCc2ccccc2)CCCC3)n1
Resp: moderate
